Source: patent US20250073338A1

Experiment: Pharmacokinetics in mice (IV and PO), plasma LC-MS/MS
Assay type: in vivo, Male ICR (CD-1) mice
Conditions: male, ICR (CD-1), mouse, plasma, 1 mg/kg, IV (1 mpk), read-out: Vss
VALUE KIND: Vd (L/kg)

| SMILES ENTRY | QUANTITY UNIT | Vd |
| --- | --- | --- |
| COc1ccc(C(=O)N(CC(C)(C)CCCCCCCCCCCCCCCCCC(=O)NCC[N+](C)(CCCC(=O)NCCN)CCCC(=O)NCCN)c2cccc(C)n2)c(N2CCC(COc3cc([C@@H](CC(=O)O)C4CC4)ccn3)CC2)c1 | L/kg | 0.08 |

a. COc1ccc(C(=O)N(CC(C)(C)CCCCCCCCCCCCCCCCCCCC(=O)NCCCN(CC(=O)O)CC(=O)O)c2cccc(C)n2)c(N2CCC(COc3cc([C@@H](CC(=O)O)C4CC4)ccn3)CC2)c1
b. COc1ccc(C(=O)N(CC(C)(C)CCCCCCCCCCCCCCCCCC(=O)NCCC[N+]23CC[N+](C)(CC2)CC3)c2cccc(C)n2)c(N2CCC(COc3cc([C@@H](CC(=O)O)C4CC4)ccn3)CC2)c1
c. COc1ccc(C(=O)N(CC(C)(C)CCCCCCCCCCCCCCCCCCCCCC[N+]23CCN(CC2)CC3)c2cccc(C)n2)c(N2CCC(COc3cc([C@@H](CC(=O)O)C4CC4)ccn3)CC2)c1
Request: Highest Vd first, then in falling order down to the smallest. Hello, could you send the labels back in the order asked? Thank you.
Result: c, b, a
